meta.source: patent US10980768B2

# Tested on: ACHN cells
# MEASUREMENT_NOTES: Cell viability (MTS) assay in ACHN cells, renal adenocarcinoma study
# Type: cell-based
# TEST_CONTEXT: ACHN renal carcinoma cells, OD490 cell viability
pIC50: −log10 of the molar value.
ATTRIBUTE_MEASURED: pIC50

> print(dat)
                            query.smiles  quantitative.result
1  N.N.O=C([O-])C1(C(=O)[O-])CCC1.[Pt+2]                 4.96

====

# Tested on: ACHN cells
# MEASUREMENT_NOTES: Cell viability (MTS) assay in ACHN cells, renal adenocarcinoma study
# Format: cell-based
# TEST_CONTEXT: Homo sapiens; ACHN renal carcinoma cells, OD490 cell viability
pIC50: −log10 of the molar value.
ATTRIBUTE_MEASURED: pIC50

> print(dat)
              query.smiles  quantitative.result
1  O=c1[nH]cc(F)c(=O)[nH]1                 5.19

====

# Test system: HL-7002 cells
# MEASUREMENT_NOTES: Cell viability (MTS) assay in HL-7002 cells, renal adenocarcinoma study
# TEST_CONTEXT: Homo sapiens, Hepatocyte
ATTRIBUTE_MEASURED: IC50 (µM)

> print(dat)
              query.smiles  attribute.measured  units.symbol  quantitative.result
1  O=c1[nH]cc(F)c(=O)[nH]1                IC50            µM                  356
